Biological target: HCV polymerase (Hepatitis C virus genotype 1a)
Construct: a particularly preferred RNA polymerases is the HCV NS5B polypeptide
Sequence (P27958 2421-3011): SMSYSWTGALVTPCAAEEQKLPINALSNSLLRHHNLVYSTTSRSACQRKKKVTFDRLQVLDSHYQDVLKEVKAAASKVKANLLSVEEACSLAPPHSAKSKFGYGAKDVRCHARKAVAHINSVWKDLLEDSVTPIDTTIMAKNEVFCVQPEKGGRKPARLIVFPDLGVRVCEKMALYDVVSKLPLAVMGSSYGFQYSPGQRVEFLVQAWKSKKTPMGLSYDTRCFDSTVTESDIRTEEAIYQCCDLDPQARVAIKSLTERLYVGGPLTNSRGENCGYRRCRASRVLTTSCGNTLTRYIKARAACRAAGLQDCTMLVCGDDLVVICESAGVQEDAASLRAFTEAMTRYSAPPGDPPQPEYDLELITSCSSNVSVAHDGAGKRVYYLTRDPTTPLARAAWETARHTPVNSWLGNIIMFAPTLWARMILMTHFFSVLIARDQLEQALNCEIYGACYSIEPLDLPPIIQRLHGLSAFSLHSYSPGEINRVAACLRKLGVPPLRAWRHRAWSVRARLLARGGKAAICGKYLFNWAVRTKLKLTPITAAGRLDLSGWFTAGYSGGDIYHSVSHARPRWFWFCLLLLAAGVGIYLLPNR
Test: HCV NS5B de novo initiation assay, ATP as initiation nucleotide
Format: biochemical
Procedure: In vitro RNA-dependent RNA polymerase assay was used to evaluate activity of dinucleotide compounds as inhibitors of HCV polymerase. Examples of such compounds are illustrated below as compounds A and B in. To further determine whether this inhibitory effect of HCV polymerase is specific for a particular initiation nucleotide, de novo initiation assay was performed using ATP as the initiation nucleotide (template RNA: 5′ AAAAAAAAGU 3′).
Attribute Measured: IC50

Q: Recall and state the measured IC50 for COC1C(OP(O)(=S)OCC2CC(O)C(n3ccc(N)nc3=O)O2)C(COP(=O)(O)O)OC1n1cnc2c(=O)[nH]c(N)nc21 (stereo not shown) [compound A] .
Result: ~90 µM
